// data source = patent US20260116991A1

# tested-target: T1, polypeptide GC3pep (human)
# T1 construct: also called membrane proximal polypeptide GC3pep
# T1 peptide: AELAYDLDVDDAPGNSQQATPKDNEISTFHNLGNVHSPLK
# test-description: ELISA, GC3pep coated, antibody 1 nM;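 note: bound antibody detected with an HRP-conjugated secondary antibody and TMB substrate, reaction stopped with HCl, after 2 h binding at 37 °C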
Classification field: yes (1) = OD450 nm at or over 0.05 OD450 nm; no (0) = OD450 nm under 0.05 OD450 nm.

F1.145.22 (antibody, human IgG1, kappa, V domains shown, human-murine chimeric antibody) VH: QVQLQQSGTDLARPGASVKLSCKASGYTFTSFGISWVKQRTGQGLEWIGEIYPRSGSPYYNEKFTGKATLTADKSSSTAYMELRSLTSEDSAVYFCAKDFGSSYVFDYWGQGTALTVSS VL: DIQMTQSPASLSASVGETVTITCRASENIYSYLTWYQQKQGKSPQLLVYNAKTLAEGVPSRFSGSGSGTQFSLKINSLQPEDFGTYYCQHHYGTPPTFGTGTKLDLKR    no (0)
F4.26.1 (antibody, human IgG1, kappa, V domains shown, human-murine chimeric antibody) VH: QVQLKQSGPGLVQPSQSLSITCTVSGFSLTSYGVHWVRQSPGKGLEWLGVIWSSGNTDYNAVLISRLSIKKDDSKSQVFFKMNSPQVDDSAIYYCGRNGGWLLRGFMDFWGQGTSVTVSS VL: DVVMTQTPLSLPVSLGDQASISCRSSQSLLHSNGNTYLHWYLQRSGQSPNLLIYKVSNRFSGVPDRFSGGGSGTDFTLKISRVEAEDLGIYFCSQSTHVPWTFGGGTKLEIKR    yes (1)
F4.21.16 (antibody, human IgG1, kappa, V domains shown, human-murine chimeric antibody) VH: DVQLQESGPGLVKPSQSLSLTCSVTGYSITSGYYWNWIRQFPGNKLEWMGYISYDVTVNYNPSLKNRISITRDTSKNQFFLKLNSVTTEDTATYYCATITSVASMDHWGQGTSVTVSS VL: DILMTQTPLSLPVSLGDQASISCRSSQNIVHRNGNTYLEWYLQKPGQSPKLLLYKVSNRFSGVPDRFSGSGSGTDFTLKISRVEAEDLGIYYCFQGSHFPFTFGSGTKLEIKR    no (0)

Confirm if OD450 nm reported for the binder F2.152.3 (antibody, human IgG1, kappa, V domains shown, human-murine chimeric antibody) VH: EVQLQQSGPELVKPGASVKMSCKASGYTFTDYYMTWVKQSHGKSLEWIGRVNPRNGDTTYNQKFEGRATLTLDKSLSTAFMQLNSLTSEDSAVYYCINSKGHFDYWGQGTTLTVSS VL: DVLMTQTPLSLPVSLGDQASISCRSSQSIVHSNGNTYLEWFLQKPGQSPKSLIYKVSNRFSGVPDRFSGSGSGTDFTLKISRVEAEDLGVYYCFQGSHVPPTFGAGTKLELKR is 0.05 OD450 nm or above.
yes (1)
